Experiment: Cytotoxicity against mouse C2C12 cells assessed as lethal dose
Assay type: toxicity, cell-based
Settings: read-out: LD50 (the source's name)
The entries below come with measured CC50 values attached.
outcomeMeasure: CC50

- molecule: "COC1=CC(=O)N(C(=O)/C=C/[C@H](CCc2ccccc2)NC(=O)[C@H](CC(C)C)NC(=O)[C@H](CC(C)C)NC(=O)[C@H](C(C)C)N(C)C)[C@H]1Cc1c[nH]c2ccccc12"
  outcomeMeasure: "CC50"
  valueMeasured: "> 600 nM"
- molecule: "COC1=CC(=O)N(C(=O)/C=C/[C@H](CCc2ccccc2)NC(=O)[C@H](CC(C)C)NC(=O)[C@H](CC(C)C)NC(=O)C2CCN(C)CC2)C1Cc1ccc(-c2ccc(C#N)cc2)cc1 (stereo not given in full)"
  outcomeMeasure: "CC50"
  valueMeasured: "> 600 nM"
- molecule: "COC1=CC(=O)N(C(=O)/C=C/[C@H](C)NC(=O)[C@H](CC2CCCCC2)NC(=O)[C@H](CC(C)C)NC(=O)[C@H](C(C)C)N(C)C)[C@H]1Cc1c[nH]c2ccccc12"
  outcomeMeasure: "CC50"
  valueMeasured: "> 600 nM"
- molecule: "CC[C@H](C)[C@@H](C(=O)O[C@@H](CC(C)C)C(=O)N[C@@H](CC(C)C)C(=O)N[C@@H](C)/C=C/C(=O)N1C(=O)C=C(OC)[C@@H]1C)N(C)C [GALLINAMIDE A]"
  outcomeMeasure: "CC50"
  valueMeasured: "> 600 nM"
- molecule: "COC1=CC(=O)N(C(=O)/C=C/[C@@H](CCc2ccccc2)NC(=O)[C@H](CC(C)C)NC(=O)[C@H](CC(C)C)NC(=O)[C@H](C(C)C)N(C)C)C1Cc1ccc(-c2ccc(C#N)cc2)cc1 (stereo not given in full)"
  outcomeMeasure: "CC50"
  valueMeasured: "> 600 nM"

###

Molecular target: UniProt:P25779
Sequence (P25779 whole entry): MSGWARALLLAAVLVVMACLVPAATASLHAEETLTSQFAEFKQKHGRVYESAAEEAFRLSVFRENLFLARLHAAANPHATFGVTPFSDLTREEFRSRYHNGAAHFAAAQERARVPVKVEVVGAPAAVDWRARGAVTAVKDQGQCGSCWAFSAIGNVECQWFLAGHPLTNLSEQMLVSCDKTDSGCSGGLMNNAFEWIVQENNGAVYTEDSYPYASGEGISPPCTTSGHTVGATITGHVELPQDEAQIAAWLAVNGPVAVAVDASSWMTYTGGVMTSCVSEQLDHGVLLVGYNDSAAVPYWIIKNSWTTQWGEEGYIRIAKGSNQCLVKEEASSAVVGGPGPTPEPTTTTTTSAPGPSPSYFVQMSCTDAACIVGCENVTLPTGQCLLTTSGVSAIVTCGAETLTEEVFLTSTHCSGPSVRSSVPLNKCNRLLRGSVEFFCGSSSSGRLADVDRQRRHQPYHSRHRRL
The entries below come with measured IC50 values attached.

- compound: "COC1=CC(=O)N(C(=O)/C=C/[C@H](CCc2ccccc2)NC(=O)[C@H](CC(C)C)NC(=O)[C@H](CC(C)C)NC(=O)C2CCN(C)CC2)C1Cc1ccc(-c2ccc3ccccc3c2)cc1 (some centres not stated)"
  IC50, nM: 1.56
- compound: "COC1=CC(=O)N(C(=O)/C=C/[C@H](CCc2ccccc2)NC(=O)[C@H](CC(C)C)NC(=O)[C@H](CC(C)C)NC(=O)C2CCN(C)CC2)C1Cc1ccc(-c2ccc(C#N)cc2)cc1 (some centres not stated)"
  IC50, nM: 0.13
- compound: "CC[C@H](C)[C@@H](C(=O)O[C@@H](CC(C)C)C(=O)N[C@@H](CC(C)C)C(=O)N[C@@H](C)/C=C/C(=O)N1C(=O)C=C(OC)[C@@H]1C)N(C)C [GALLINAMIDE A]"
  IC50, nM: 1.3
- compound: "COC1=CC(=O)N(C(=O)/C=C/[C@@H](CCc2ccccc2)NC(=O)[C@H](CC(C)C)NC(=O)[C@H](CC(C)C)NC(=O)[C@H](C(C)C)N(C)C)C1Cc1ccc(-c2ccccc2)cc1 (some centres not stated)"
  IC50, nM: 0.12
- compound: "COC1=CC(=O)N(C(=O)/C=C/[C@@H](CCc2ccccc2)NC(=O)[C@H](CC(C)C)NC(=O)[C@H](CC(C)C)NC(=O)[C@H](C(C)C)N(C)C)C1Cc1ccc(-c2ccc(OC)cc2)cc1 (some centres not stated)"
  IC50, nM: 0.28
- compound: "COC1=CC(=O)N(C(=O)/C=C/[C@H](CCc2ccccc2)NC(=O)[C@H](CC(C)C)NC(=O)[C@H](CC(C)C)NC(=O)C2CCN(C)CC2)C1Cc1ccc(-c2ccc(OC)cc2)cc1 (some centres not stated)"
  IC50, nM: 0.26
- compound: "COC1=CC(=O)N(C(=O)/C=C/[C@@H](CCc2ccccc2)NC(=O)[C@H](CC(C)C)NC(=O)[C@H](CC(C)C)NC(=O)[C@H](C(C)C)N(C)C)C1Cc1ccc(-c2ccc3ccccc3c2)cc1 (some centres not stated)"
  IC50, nM: 0.69
- compound: "COC1=CC(=O)N(C(=O)/C=C/[C@@H](CCc2ccccc2)NC(=O)[C@H](CC(C)C)NC(=O)[C@H](CC(C)C)NC(=O)[C@H](C(C)C)N(C)C)C1Cc1ccc(-c2ccc(C(F)(F)F)cc2)cc1 (some centres not stated)"
  IC50, nM: 0.68
- compound: "COC1=CC(=O)N(C(=O)/C=C/[C@H](CCc2ccccc2)NC(=O)[C@H](CC(C)C)NC(=O)[C@H](CC(C)C)NC(=O)C2CCN(C)CC2)C1Cc1ccc(-c2ccccc2)cc1 (some centres not stated)"
  IC50, nM: 0.4
- compound: "CCCC[C@H]1O[C@@H]1/C=C/C=O"
  IC50, nM: 29.7
- compound: "COC1=CC(=O)N(C(=O)/C=C/[C@@H](CCc2ccccc2)NC(=O)[C@H](CC(C)C)NC(=O)[C@H](CC(C)C)NC(=O)[C@H](C(C)C)N(C)C)C1Cc1ccc(-c2ccc(C#N)cc2)cc1 (some centres not stated)"
  IC50, nM: 0.11
- compound: "COC1=CC(=O)N(C(=O)/C=C/[C@H](CCc2ccccc2)NC(=O)[C@H](CC(C)C)NC(=O)[C@H](CC(C)C)NC(=O)C2CCN(C)CC2)C1Cc1ccc(-c2ccc(C(F)(F)F)cc2)cc1 (some centres not stated)"
  IC50, nM: 0.79
